# study.system: human muscarinic M3 receptor (Homo sapiens)
# Sequence (P20309 whole entry): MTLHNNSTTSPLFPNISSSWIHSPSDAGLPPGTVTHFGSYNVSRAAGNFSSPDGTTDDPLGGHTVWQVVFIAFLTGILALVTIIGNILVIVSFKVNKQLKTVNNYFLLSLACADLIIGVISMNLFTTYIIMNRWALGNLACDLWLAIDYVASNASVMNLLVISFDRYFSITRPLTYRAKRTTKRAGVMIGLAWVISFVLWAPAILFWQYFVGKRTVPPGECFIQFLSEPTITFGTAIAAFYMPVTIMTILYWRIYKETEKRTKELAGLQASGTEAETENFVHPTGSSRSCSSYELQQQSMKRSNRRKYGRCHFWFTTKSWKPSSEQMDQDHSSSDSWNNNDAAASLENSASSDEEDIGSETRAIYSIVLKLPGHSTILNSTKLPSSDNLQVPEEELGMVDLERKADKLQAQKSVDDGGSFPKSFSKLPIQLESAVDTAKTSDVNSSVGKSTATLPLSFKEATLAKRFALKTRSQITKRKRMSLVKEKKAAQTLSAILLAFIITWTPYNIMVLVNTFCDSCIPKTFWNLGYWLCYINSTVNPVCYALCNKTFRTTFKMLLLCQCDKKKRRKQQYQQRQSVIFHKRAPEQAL
# procedure.summary: hM3 β-Lac potency assay (cell based β-lactamase, inhibition of carbamyl choline induced signal)
# measurement.conditions: CHO cells expressing human M3 receptor with NFAT-β-lactamase reporter; 80 nM carbamyl choline, 4 h; IC50 converted to Ki by Cheng-Prusoff
# Experimental: M3 potency was determined in CHO-K1 cells transfected with the NFAT-Betalactamase gene. CHO (Chinese Hamster Ovary) cells recombinantly expressing the human muscarinic M3 receptor were transfected with the NFAT_β-Lac_Zeo plasmid. The cells were re-suspended at 2×10^5 cells/ml in growth medium (composition as described above). […]
Each entry below carries its reported Ki.
quantity.measured: Ki

>>> measurement("CC(C)(CCC(C#N)(c1ccccc1)c1ccccc1)N1CC(NCc2cc(F)ccc2O)C1 [Example 7]")
"4.37 nM"
>>> measurement("CC(C)(CCC(C(N)=O)(c1ccccc1)c1ccccc1)N1CC(NCc2cccc(O)c2)C1 [Example 6]")
"0.727 nM"
>>> measurement("CC(C)(CCC(C(N)=O)(c1ccccc1)c1ccccc1)N1CC(NCc2ccccc2)C1 [Example 2]")
"0.556 nM"
>>> measurement("CC(C)(CCC(C(N)=O)(c1ccccc1)c1ccccc1)N1CC(NCc2ccccc2O)C1 [Example 9]")
"0.594 nM"
>>> measurement("CC(C)(CCC(C(N)=O)(c1ccccc1)c1ccccc1)N1CC(NCc2cc(F)ccc2O)C1 [Example 5]")
"2.53 nM"
>>> measurement("CC(C)(CCC(C(N)=O)(c1ccccc1)c1ccccc1)N1CC(NCc2cc(Cl)ccc2O)C1 [Example 4]")
"56.8 nM"
>>> measurement("CC(C)(CCC(C(N)=O)(c1ccccc1)c1ccccc1)N1CC(NCc2ccc(Cl)c(O)c2)C1 [Example 12]")
"0.905 nM"
>>> measurement("CC(C)(CCC(C(N)=O)(c1ccccc1)c1ccccc1)N1CC(NCc2ccc(F)c(O)c2)C1 [Example 10]")
"0.396 nM"
>>> measurement("CC(C)(CCC(C(N)=O)(c1ccccc1)c1ccccc1)N1CC(NCc2cccc(O)c2Cl)C1 [Example 3]")
"2.08 nM"
>>> measurement("CC(C)(CCC(C(N)=O)(c1ccccc1)c1ccccc1)N1CC(Sc2cccc(O)c2)C1 [Example 15]")
"0.368 nM"
>>> measurement("CC(C)(CCC(C#N)(c1ccccc1)c1ccccc1)N1CC(NCc2cc(Cl)ccc2O)C1 [Example 8]")
"> 315 nM"
